- System: P. falciparum female gametocytes
- method-notes: P. falciparum Dual Gamete Formation Assay (PfDGFA), female readout (Pfs25-positive female gametes)
- Type: cell-based, Plasmodium falciparum NF54
- assay-setup: PfDGFA at 2µM, 24h preincubation with gametocytes; replicate R1
// values below are reported % inhibition female (individual replicates) R1

Lookup result for COc1cc2ccccc2c(OC)c1CNCCCCCCNCc1c(OC)cc2ccccc2c1OC.CS(=O)(=O)O ; measured % inhibition female (individual replicates) R1: 31.9%

Lookup result for CCCN(CCC)CCCN(CCCN(CCC)CCC)c1cc(C)nc(Nc2ccc3cc(Br)ccc3c2)n1.Cl ; measured % inhibition female (individual replicates) R1: 42.6%

Lookup result for COc1ccc(CCNCCCCCCNCCc2ccc(Cl)cc2)c(Cl)c1OC.Cl ; measured % inhibition female (individual replicates) R1: 25.7%

Lookup result for CCc1c(CCNCCCCCCNC(C)Cc2ccc3c(c2CC)OCO3)ccc(OC)c1OC.Cl (stereo not shown) ; measured % inhibition female (individual replicates) R1: 34.8%

Lookup result for COc1ccc(CNC2CCN(C)CC2)cc1-c1ccc(S(=O)(=O)NCc2ccccc2)c(F)c1.O=C(O)C(F)(F)F ; measured % inhibition female (individual replicates) R1: 21.9%

Lookup result for CCOc1cc(CNCCCCCCNCc2cc(OCC)c(OCC)c3ccccc23)c2ccccc2c1OCC.CS(=O)(=O)O ; measured % inhibition female (individual replicates) R1: 31.3%

Lookup result for CS(=O)(=O)O.FC(F)(F)COc1ccc2ccccc2c1CCNCCCCNCCc1c(OCC(F)(F)F)ccc2ccccc12 ; measured % inhibition female (individual replicates) R1: 30.1%

Sourced from paper PMC10584170
